Cited source for all entries: ChEMBL document CHEMBL1201862

Parameter: GI50. Scope: all listed entries.
Test system: COLO 205
test-method-notes: NCI tumour cell line growth inhibition, 48 h
Activity calls are given as the source filed them. Cut-off read from the data, not from the text of the source: active = GI50 up to about 1.1 µM and inactive = higher.
measured-attribute: GI50

1) O=C(CSc1ncnc2[nH]cnc12)c1ccccc1 | > 91 µM (inactive)
2) CC1CC(=O)Nc2ccccc2N1C(=O)CN1CCC(CCCCN(C)C)CC1 (configuration not stated) | > 100 µM (inactive)
3) COC(=O)c1csc(-c2csc(CCNC(=O)OC(C)(C)C)n2)n1 | > 100 µM (inactive)
4) O=[N+]([O-])c1nccn1CC(O)CN1CCCCC1 (configuration not stated) | > 100 µM (inactive)
5) C=C1C[C@@H]2CC[C@@]34CC5O[C@H]6C(O[C@H]7CC[C@H](CC(=O)O[C@@H]8[C@@H](C)[C@@H]9O[C@@H]%10C[C@]%11(C[C@@H]%12O[C@]%13(C[C@H](C)[C@@H]%14O[C@@H]%15CC(C(O)CO)O[C@@H]%15C[C@@H]%14O%13)C[C@H](C)[C@@H]%12O%11)O[C@@H]%10C[C@@H]9O[C@H]8CC8O[C@@H](CC[C@@H]1O2)C[C@@H](C)C8(O)CO)O[C@@H]7[C@@H]6O3)[C@H]5O4 (some centres not stated) | > 0.65 µM (active)
6) CC1OC2=N[C@@H]1C(=O)N[C@@H](C(C)C)C1=N[C@H](C(=O)N[C@@H](C(C)C)C3=N[C@H](C(=O)N[C@@H](C(C)C)C4=N[C@H](C(=O)N[C@H]2C(C)C)C(C)O4)C(C)O3)C(C)O1 (some centres not stated) | > 10 µM (inactive)
7) CCO[C@@H]1CCC([S+]([O-])c2ccc(C)cc2)=CO1 (some centres not stated) | > 100 µM (inactive)
